biological target: SHP2 (Homo sapiens, UniProt Q06124); assay: SHP2 degradation by Western blot in KYSE520 cells; details: 1 µM
Sequence (Q06124 whole entry): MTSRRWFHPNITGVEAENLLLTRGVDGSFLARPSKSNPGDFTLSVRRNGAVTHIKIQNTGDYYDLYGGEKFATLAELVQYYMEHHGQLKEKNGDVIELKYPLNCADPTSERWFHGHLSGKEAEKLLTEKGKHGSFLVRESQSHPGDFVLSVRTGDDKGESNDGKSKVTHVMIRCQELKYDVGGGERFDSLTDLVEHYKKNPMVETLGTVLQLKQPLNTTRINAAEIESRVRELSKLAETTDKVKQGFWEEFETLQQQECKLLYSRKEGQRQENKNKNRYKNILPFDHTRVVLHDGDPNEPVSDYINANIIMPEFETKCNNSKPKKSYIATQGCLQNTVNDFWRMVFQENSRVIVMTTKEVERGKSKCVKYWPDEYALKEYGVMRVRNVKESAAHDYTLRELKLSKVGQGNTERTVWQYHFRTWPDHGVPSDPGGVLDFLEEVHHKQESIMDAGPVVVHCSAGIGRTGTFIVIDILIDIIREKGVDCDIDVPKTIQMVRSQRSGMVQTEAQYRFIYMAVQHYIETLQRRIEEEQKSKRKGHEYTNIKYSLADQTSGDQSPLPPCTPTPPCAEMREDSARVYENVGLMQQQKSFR
assayMetric: % of SHP2 protein degradation in KYSE520 cell line (%)
Use % as the unit, but write only the number.

Examples with answers:
Cc1ncsc1-c1ccc([C@@H](C)NC(=O)[C@H]2C[C@H](O)CN2C(=O)[C@H](NC(=O)CCCCCNC(=O)CC(=O)Nc2cccc(Sc3ncc(N4CCC(C)(N)CC4)nc3N)c2Cl)C(C)(C)C)cc1 [Compound 10] :: 3
Cc1ncsc1-c1ccc([C@@H](C)NC(=O)[C@H]2C[C@H](O)CN2C(=O)[C@H](NC(=O)CCCCNC(=O)CC(=O)Nc2cccc(Sc3ncc(N4CCC(C)(N)CC4)nc3N)c2Cl)C(C)(C)C)cc1 [Compound 9] :: 6
Cc1ncsc1-c1ccc([C@@H](C)NC(=O)[C@H]2C[C@H](O)CN2C(=O)[C@H](NC(=O)CCOCCOCCOCCNC(=O)CCC(=O)Nc2cccc(Sc3ncc(N4CCC(C)(N)CC4)nc3N)c2Cl)C(C)(C)C)cc1 [Compound 21] :: 87

Moving on to another molecule below.
Please report the measured % of SHP2 protein degradation in KYSE520 cell line for Cc1ncsc1-c1ccc([C@@H](C)NC(=O)[C@H]2C[C@H](O)CN2C(=O)[C@H](NC(=O)CCCCCCCCCNC(=O)CC(=O)Nc2cccc(Sc3ncc(N4CCC(C)(N)CC4)nc3N)c2Cl)C(C)(C)C)cc1 [Compound 14]
92

---

biological target: SHP2 (Homo sapiens); test: SHP2 degradation by Western blot in KYSE520 cells; conditions: 0.1 µM
# % of SHP2 protein degradation in KYSE520 cell line per record follows
Entry rule: numbers only, all in %.

Cc1ncsc1-c1ccc([C@@H](C)NC(=O)[C@H]2C[C@H](O)CN2C(=O)[C@H](NC(=O)CCCNC(=O)CC(=O)Nc2cccc(Sc3ncc(N4CCC(C)(N)CC4)nc3N)c2Cl)C(C)(C)C)cc1 :: 9

State its % of SHP2 protein degradation in KYSE520 cell line for this compound: `Cc1ncsc1-c1ccc([C@@H](C)NC(=O)[C@H]2C[C@H](O)CN2C(=O)[C@H](NC(=O)CCCCCCNC(=O)CC(=O)Nc2cccc(Sc3ncc(N4CCC(C)(N)CC4)nc3N)c2Cl)C(C)(C)C)cc1`
0

---

target: SHP2 (Homo sapiens); assay: SHP2 degradation by Western blot in KYSE520 cells; conditions: 0.1 µM
Entries and their measured % of SHP2 protein degradation in KYSE520 cell line follow.

Cc1ncsc1-c1ccc([C@@H](C)NC(=O)[C@H]2C[C@H](O)CN2C(=O)[C@H](NC(=O)CCCCCCCCCCCNC(=O)CCC(=O)Nc2cccc(Sc3ncc(N4CCC(C)(N)CC4)nc3N)c2Cl)C(C)(C)C)cc1 [Compound 18] :: >95%
Cc1ncsc1-c1ccc([C@@H](C)NC(=O)[C@H]2C[C@H](O)CN2C(=O)[C@H](NC(=O)CCCCCCCCCNC(=O)CC(=O)Nc2cccc(Sc3ncc(N4CCC(C)(N)CC4)nc3N)c2Cl)C(C)(C)C)cc1 [Compound 14] :: >95%

Okay, now this compound:
State recorded % of SHP2 protein degradation in KYSE520 cell line with SHP2 (Homo sapiens), entry Cc1ncsc1-c1ccc([C@@H](C)NC(=O)[C@H]2C[C@H](O)CN2C(=O)[C@H](NC(=O)CCCCCCCCCCCNC(=O)CCCC(=O)Nc2cccc(Sc3ncc(N4CCC(C)(N)CC4)nc3N)c2Cl)C(C)(C)C)cc1 [Compound 19] , no comment.
>95%
